# measured on: T1, human ROR1 (hROR1) on cells (human, UniProt Q01973 30-937)
# T1 construct: whole, on cells; the cell line is named under assay; also called HEK293T-hROR1; 293T-hROR1
# procedure details: FACS, HEK293T-hROR1 cells; cytometer saturated
assay readout: MAX(MFI)
Field: numeric (MFI). Do not append units.

PR001364 (antibody, human IgG1, kappa, V domains shown, fully human IgG1, kappa; also called anti-ROR1 1015M3-D8 hIgG1; PR001364(WT)) VH: EVQLLESGGGVVQPGRSLRLSCAASGFTFSSFGMHWVRQAPGKGLEWVAVIWYDGSDKDYADSVKGRFTISRDTSKNTLYLQMNSLRAEDTAVYYCAREQARSFDLWGRGTLVTVSS VL: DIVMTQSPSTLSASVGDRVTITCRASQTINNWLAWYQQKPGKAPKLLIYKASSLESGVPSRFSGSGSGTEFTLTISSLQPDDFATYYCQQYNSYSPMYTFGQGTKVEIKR: 262000

Input: Quick one: MAX(MFI) of PR001368 (antibody, V domains shown, fully human IgG1, kappa) VH: QVQLVESGGGVVQPGRSLRLSCAASGFTFSTYGMHWVRQAPGKGLEWVAVIWYDGSDTDYADSVKGRFTISRDTSKNTLYLQMNSLRAEDTAVYYCAREQARSFDLWGRGTLVTVSS VL: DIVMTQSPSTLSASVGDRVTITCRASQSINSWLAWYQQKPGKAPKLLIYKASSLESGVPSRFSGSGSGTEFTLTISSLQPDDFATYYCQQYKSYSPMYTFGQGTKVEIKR ?
Output: 262000

Origin of measurements: patent US20240010721A1
